- System: Neural stem cell
- Assay Overview: Induction of neuronal differentiation in C57BL/6J mouse neural stem cells assessed as expression of Map2 at 1 uM administered every 2 days for 4 days by CF594/DAPI immunostaining based fluorescence microscopic microscopic analysis
- Format: functional
The source made the active and inactive calls. The calls are words filed in the database; no cut-off is given here.
Form entry, call: pick from label 1 for active, label 0 for inactive

> print(dat)
                                 mol.smiles       system.name  discrete.label
1  CC1=C(C/C=C(\C)CC/C=C(\C)CC/C=C(\C)Cc2cccc(C(C)(C)C)c2)C(=O)c2ccccc2C1=O  Neural stem cell         label 1
2  CC1=C(C/C=C(\C)CC/C=C(\C)Cc2cccc(C(C)(C)C)c2)C(=O)c2ccccc2C1=O  Neural stem cell         label 1
3  CC1=C(C/C=C(\C)CC/C=C(\C)Cc2cccc(C)c2C)C(=O)c2ccccc2C1=O  Neural stem cell         label 0

Please find the next compound below.
Returns: the outcome recorded for "CC1=C(C/C=C(\C)CC/C=C(\C)Cc2ccc(C)c(C)c2)C(=O)c2ccccc2C1=O" in this assay. label 0
